Test Target: T1, recombinant human EGFR extracellular domain with 6xHis (human, UniProt P00533 25-645)
T1 construct: In-house produced; also called 6xHis EGFR ECD; soluble human EGFR ECD; not shown: 6xHis tag
Experiment Notes: SPR competition, competitor 1257
Assay Endpoint: % inhibition (%)
Answer with a number only, understood to be in %.

The binder listed as antibody 1024 (antibody, human IgG1, kappa, V domains shown, Chimeric IgG1 kappa) VH: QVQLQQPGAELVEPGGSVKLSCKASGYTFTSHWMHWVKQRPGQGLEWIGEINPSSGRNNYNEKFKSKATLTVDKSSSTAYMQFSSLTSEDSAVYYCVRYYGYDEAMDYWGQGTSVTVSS VL: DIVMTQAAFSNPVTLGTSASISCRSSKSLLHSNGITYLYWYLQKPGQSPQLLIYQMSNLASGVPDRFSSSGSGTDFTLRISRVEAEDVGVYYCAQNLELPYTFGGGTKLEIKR shows % inhibition equal to 22

% inhibition measured on antibody 1257 (antibody, human IgG1, kappa, V domains shown, Chimeric IgG1 kappa) VH: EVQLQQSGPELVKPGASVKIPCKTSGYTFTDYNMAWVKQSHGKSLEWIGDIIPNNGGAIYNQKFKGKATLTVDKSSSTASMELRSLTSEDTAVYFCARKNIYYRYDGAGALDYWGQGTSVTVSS VL: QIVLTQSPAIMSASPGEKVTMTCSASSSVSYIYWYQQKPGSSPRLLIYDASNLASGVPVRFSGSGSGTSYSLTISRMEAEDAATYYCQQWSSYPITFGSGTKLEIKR = 90

***
The measured % inhibition associated with antibody 1261 (antibody, human IgG1, kappa, V domains shown, Chimeric IgG1 kappa) VH: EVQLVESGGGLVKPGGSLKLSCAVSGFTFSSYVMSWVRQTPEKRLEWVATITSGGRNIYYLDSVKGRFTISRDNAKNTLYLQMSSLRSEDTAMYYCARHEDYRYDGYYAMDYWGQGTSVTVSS VL: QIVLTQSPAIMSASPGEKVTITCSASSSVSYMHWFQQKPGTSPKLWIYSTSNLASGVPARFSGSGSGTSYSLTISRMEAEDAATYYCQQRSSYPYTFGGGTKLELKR reads 58
